Data origin, for the record: the RNAGym collection of RNA variant scans (doi:10.1002/anie.201605470)

So I've got a bunch of variants here, and I need their self-cleavage values.
B1: Osa-1-4 twister ribozyme (parent)
chain: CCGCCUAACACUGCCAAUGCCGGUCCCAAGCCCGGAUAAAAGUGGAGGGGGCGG

Variants of: B1
assay explanation: self-cleavage, relative activity (ratio to wild type); higher = more cleavage; co-transcriptional
Respond using a number only.

Challenge: Field request: self-cleavage | item: CCGCCUAACACUGCCAAUGCCAGUCCCAAGCCCGGAUAAAAGUGGAGUGGGCGG [G22A G48U]
Response given: 0.08

Challenge: Now try CCGCCUAACACUGCUAAUGCGGGUCCCAAGCCCGGAUAAAAGUGGAGGGGGCGG [C15U C21G] .
Response given: 0.04

Challenge: Now try CCGCCUAACACUGCCAAUGCCGGUCCCAAGCGCGGAUAAAAGUGGAGGGGGCGC [C32G G54C] .
Response given: 0.09

Challenge: Now try CCGCCUAACACUGCCAAUGCCGGUCCCAAGCCCGGAUAAAAGUGCAGUGGGCGG [G45C G48U] .
Response given: 0.02

Challenge: Now try CCGCCUAACACUGCCAAUGCCGGUCCCAAGCCCGCAUAAACGUGGAGGGGGCGG [A41C G35C] .
Response given: 0.63

Challenge: Now try CCGCCUAACACUUCUAAUGCCGGUCCCAAGCCCGGAUAAAAGUGGAGGGGGCGG [C15U G13U] .
Response given: 0.02

Challenge: Now try CCGCCUAACACUGCCACUGCCGGUCCCAAGCCCGGAUAAACGUGGAGGGGGCGG [A17C A41C] .
Response given: 0.68

Challenge: Now try CCGCCUAAUACUGCCAAUGCCGGUCCCAGGCCCGGAUAAAAGUGGAGGGGGCGG [A29G C9U] .
Response given: 0.06

Challenge: Now try CCGCCUAACACUGCCAAUGCCGGUCUCAAGGCCGGAUAAAAGUGGAGGGGGCGG [C26U C31G] .
Response given: 0.07

Challenge: Now try CCGCCUAACACUGCCAAUGCCGGUCCAAAGCCCGGAUAAAAAUGGAGGGGGCGG [C27A G42A] .
Response given: 0.08

Challenge: Now try CCGCCUAACACUGCCAAUGCCGGUCCCUAGCCCGGAUAAAAGUGGAGGGGGCGA [A28U G54A] .
Response given: 0.66
